# measurementTarget: T1, TREK-1 (Mus musculus, UniProt P97438)
# T1 chain: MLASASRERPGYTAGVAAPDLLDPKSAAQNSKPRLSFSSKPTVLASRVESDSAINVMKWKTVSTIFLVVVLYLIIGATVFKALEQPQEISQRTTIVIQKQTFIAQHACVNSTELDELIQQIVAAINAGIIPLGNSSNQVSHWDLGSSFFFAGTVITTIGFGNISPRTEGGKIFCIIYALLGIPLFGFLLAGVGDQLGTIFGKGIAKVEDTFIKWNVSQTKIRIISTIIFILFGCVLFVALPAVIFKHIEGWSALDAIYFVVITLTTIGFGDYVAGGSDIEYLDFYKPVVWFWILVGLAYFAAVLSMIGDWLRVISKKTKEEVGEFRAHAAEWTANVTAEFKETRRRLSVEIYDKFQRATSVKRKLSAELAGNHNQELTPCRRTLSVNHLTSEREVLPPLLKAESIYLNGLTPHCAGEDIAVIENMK
# testSummary: radioligand binding
readout: Kd

INSERT INTO results (binder, measvalue) VALUES
  ('APLPRWSGPIGVSWGLR [spadin]', '~10 nM');
